B1: ISL2 (parent)
chain: HYPFLGAMGDHSKKKPGTAMCVGC

- Variants of: B1
- TEST: protein stability index of a GFP-peptide fusion (GPS, HEK-293T) (PSI 1-6); higher = more stable;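 note: lentivirally expressed fusions sorted by FACS into six bins by GFP to DsRed ratio, PSI derived from sequencing read proportions per bin multiplied by bin number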
- ASSAY_CONDITIONS: c terminus: a fixed tail appended
protein stability index values by entry
Output spec: single numeric token, no unit.

Use the examples below as a reference point.
VARIANT_DESCRIPTOR: P3M
protein stability index: 2.18

VARIANT_DESCRIPTOR: K13D
protein stability index: 3.18

VARIANT_DESCRIPTOR: G6W
protein stability index: 1.75

VARIANT_DESCRIPTOR: F4Y
protein stability index: 2.21

VARIANT_DESCRIPTOR: T18G
protein stability index: 2.5

VARIANT_DESCRIPTOR: D10L
protein stability index: 2.39

Short answer for "F4K" : protein stability index was 2.92

Short answer for "C24G" : protein stability index was 3.17

Short answer for "G17M" : protein stability index was 2.43

Short answer for "P16G" : protein stability index was 2.19

Short answer for "G17N" : protein stability index was 3.01
